Several publications report IC50 on Human Factor XIIa (Homo sapiens, UniProt P00748); those values are gathered here.

# Compound, IC50
records = [
    ("Cc1cc2c(C(=O)n3nc4c(c3N)CN(C(=O)OC(C)(C)C)CC4)cccc2[nH]1", "0.08 µM"),
    ("CS(=O)(=O)c1cccc(CNc2ncc(Cl)cc2C(=O)NCc2ccc3c(N)nccc3c2)c1", "3 to 10 µM"),
    ("Cc1cccc2c1NCCC2C(=O)n1nc(N)c2c1COCC2 (stereo not shown)", "> 100 µM"),
    ("Cc1cc2c(C(=O)n3nc4c(c3N)CCCC4)cccc2s1", "0.06 µM"),
    ("CS(=O)(=O)NCCCC[C@@H](NC1CCCCC1)C(=O)N1CCN(C2=NCC3(CCCCC3)O2)C[C@H]1C(=O)NCc1cccs1", "0.0211 µM"),
    ("CN1CCC(CNc2ncccc2C(=O)NCc2ccc3c(N)nccc3c2)CC1", "1 to 3 µM"),
    ("Cc1cc2c([nH]1)CCCC2C(=O)n1nc2c(c1N)CCCC2 (stereo not shown)", "0.3 µM"),
    ("Cc1cc(C(=O)NCc2ccc3c(N)nccc3c2)sc1CN1CCCN(c2ccncc2)CC1", "3 to 10 µM"),
    ("CN(C)c1ccc(Oc2ncc(C(=O)NCc3ccc4c(N)nccc4c3)cc2Cl)cc1", "10 to 40 µM"),
    ("Nc1nccc2cc(CNC(=O)c3cc(Cl)cnc3NCc3ccncc3)ccc12", "3 to 10 µM"),
    ("CN(C)CCCNc1ncc(C(=O)NCc2ccc3c(N)nccc3c2)cc1Cl", "3 to 10 µM"),
    ("Nc1c2c(nn1C(=O)[C@H]1CCNc3c(Cl)cccc31)C[C@@H](O)CC2 (single isomer, unassigned)", "0.16 µM"),
    ("CN(C)CCOc1ccc(CNc2ncc(Cl)cc2C(=O)NCc2ccc3c(N)nccc3c2)cc1", "3 to 10 µM"),
    ("O=C(NCc1c(F)cccc1-n1cnnn1)c1cn(Cc2ccc(Cn3ccccc3=O)cc2)nc1C(F)(F)F", "> 4 µM"),
    ("CCOc1ccc(C[C@@H](NC(=O)c2sccc2Cl)C(=O)N(C)[C@@H](Cc2ccccc2)C(=O)NCc2ccc(CN)cc2)cc1", "> 10 µM"),
    ("Cc1cccc2c1NCC[C@H]2C(=O)n1nc2c(c1N)CCN(CCO)C2 (single isomer, unassigned)", "> 25 µM"),
]

###

Several publications report IC50 on UniProt:P00748; those values are gathered here.
Property: IC50 (nM)

# Compound, Assay system, Cmp, Numeric result
rows = [
    ("CC(C)CN1CCc2c(nn(C(=O)C3CCNc4ccc(F)cc43)c2N)C1 (centres unmarked)", "UniProt:P00748", "=", 50),
    ("CC1(C)N=C(N2CCN(C(=O)[C@H](N)CCCCN3CCCCC3)[C@H](C(=O)NCc3cccc(Cl)c3)C2)OC1c1ccccc1 (some centres unmarked)", "UniProt:P00748", "=", 52.3),
    ("Cc1ccc2cc(Cn3cc(C(=O)NCc4c(C)cc(CN)cc4C)c(C(F)(F)F)n3)ccc2n1", "UniProt:P00748", ">", 40000),
    ("C[C@@H]1N=C(N2CCN(C(=O)[C@@H](CCCCN(C)C)NC3CCC4(CC3)CCN(Cc3ccccc3)C4)[C@H](C(=O)NCc3cccs3)C2)O[C@H]1c1ccccc1 (some centres unmarked)", "UniProt:P00748", "=", 1.2),
    ("Nc1c2c(nn1C(=O)C1CCNc3ccc(F)cc31)CN(S(=O)(=O)c1ccncc1)CC2 (centres unmarked)", "UniProt:P00748", "=", 1200),
    ("CN(C)CCCC[C@H](C(=O)N1CCN(C2=NC(C)(C)C(c3ccccc3)O2)C[C@H]1C(=O)NCc1cc(CN)cs1)N(C)C (some centres unmarked)", "UniProt:P00748", "=", 48.5),
    ("C[C@@H]1N=C(N2CCN(C(=O)[C@H](CCCCN(C)C)NC3CCC4(CC3)CCN(Cc3ccccc3)C4)[C@H](C(=O)NCc3cccs3)C2)O[C@H]1c1ccccc1 (some centres unmarked)", "UniProt:P00748", "=", 23.2),
    ("CN1CCC(CNc2nc(Cl)c(Cl)cc2C(=O)NCc2ccc3c(N)nccc3c2)CC1", "UniProt:P00748", "<", 300),
    ("CN1CCC(C(=O)n2nc3c(c2N)CCCC3)c2ccccc21 (single isomer, unassigned)", "UniProt:P00748", "=", 150),
    ("COc1cc(CNC(=O)[C@@H]2CN(C3=N[C@@H](C)[C@H](c4ccccc4)O3)CCN2C(=O)[C@@H](CCCCN2CCCCC2)NC2CCC(CN)CC2)ccc1C(N)=O (some centres unmarked)", "UniProt:P00748", "=", 41.1),
    ("C[C@@H]1N=C(N2CCN(C(=O)[C@@H](CCCCN(C)C)NC3CCCCC3)[C@H](C(=O)NCc3cccs3)C2)O[C@H]1c1cccc(C#N)c1", "UniProt:P00748", "=", 1.4),
    ("Nc1nn(C(=O)C2CCNc3c(Cl)cccc32)c2c1CC(O)CC2 (single isomer, unassigned)", "UniProt:P00748", ">", 100000),
    ("C[C@@H]1N=C(N2CCN(C(=O)[C@@H](CC3CCN(C4CCC(C(N)=O)CC4)CC3)NC3CCC(C(N)=O)CC3)[C@H](C(=O)NCc3cccs3)C2)O[C@H]1c1ccccc1 (some centres unmarked)", "UniProt:P00748", "=", 34.2),
    ("Cc1csc(C)c1C(=O)n1nc(N)c2c1CCCC2 (single isomer, unassigned)", "UniProt:P00748", ">", 100000),
    ("CCc1cscc1C(=O)n1nc(N)c2c1CCCC2 (single isomer, unassigned)", "UniProt:P00748", ">", 50000),
    ("Nc1nn(C(=O)C2CCNc3ccc(F)cc32)c2c1CC(F)CC2 (single isomer, unassigned)", "UniProt:P00748", "=", 85000),
    ("CCc1ccc2c(c1)C(C(=O)n1nc3c(c1N)CCN(S(C)(=O)=O)C3)CCN2 (single isomer, unassigned)", "UniProt:P00748", "=", 20),
    ("Cc1cnn(Cc2ccc(Cn3c(C)cc(C(=O)NCc4c(C)cc(CN)cc4C)c3C)cc2)c1", "UniProt:P00748", ">", 10000),
]
